# Protocol: Tested for inhibition of DNA synthesis at a dose range of 1.9-2.4 ug/ml after 30 min; range of 8-10 uM
# Assay type: functional
Reported metric: pIC50
Give only the number. pIC50 is defined as minus log10 of concentration in molar units.

Q: Fill in the blank: the reported pIC50 of `CCCCCCCCCCCCNC(=O)[C@@H](N)COC` is ____.
Ans: 5.00

###

Please provide measured pKa for the entries that follow.
# Protocol: Dissociation constant was measured in water
# Format: physicochemical
# Condition label: water; read-out: pKa
Give the figure by itself; no unit, no explanation.

Q: // query pKa value for entry `CCCCCCCCCCCCNC(=O)[C@@H](N)CO`
Ans: 7.5

Q: Same again, this time with `CCCCCCCCCCCCn1ccnc1`
Ans: 6.3

Q: Next entry: `Cn1ccnc1`
Ans: 7
